This collection of values is drawn from ChEMBL document CHEMBL1132294.

test system: Cryptococcus neoformans; assay: Antimycotic activity against Cryptococcus neoformans was evaluated. MIC was defined as compound concentration at which no macroscopic signs of fungal growth were detected.; type: functional
In this section, each of the compounds is paired with its reported MIC.

O=Nc1c2ccccc2n2nnc3ccccc3c12	3.1 µM
O=Nc1c2cc(Cl)ccc2n2nnc3ccccc3c12	> 200 µM
O=Nc1c2ccccc2n2nnc3cc(Cl)ccc3c12	1.6 µM

In: Any idea what MIC was measured for Clc1ccc(COC(Cn2ccnc2)c2ccc(Cl)cc2Cl)c(Cl)c1 (stereo unspecified) ?
Out: 0.9 µM

In: What does the record list as MIC for O=Nc1c2cc([N+](=O)[O-])ccc2n2nnc3ccccc3c12 ?
Out: 7.4 µM

In: Could you tell me which MIC is on file for COc1ccc2c(c1)c(N=O)c1c3ccccc3nnn21 ?
Out: > 200 µM

---

system: Aspergillus fumigatus; experiment: Antimycotic activity against Aspergillus fumigatus was evaluated as compound minimum inhibitory concentration at which no macroscopic signs of fungal growth were detected.; type: functional
PARAMETER: MIC

O=Nc1c2ccccc2n2nnc3ccccc3c12	19 µM
O=Nc1c2cc(Cl)ccc2n2nnc3ccccc3c12	> 200 µM
Cc1ccc2nnn3c4ccccc4c(N=O)c3c2c1	> 200 µM
O=Nc1c2ccccc2n2nnc3cc(Cl)ccc3c12	6.2 µM

With those in mind, consider the next compound.
In: Data request, read-out MIC, for O=Nc1c2cc([N+](=O)[O-])ccc2n2nnc3ccccc3c12
Out: > 200 µM

---

test system: HeLa; test: Antitumor activity was evaluated against human cervix carcinoma cell line HeLa.; type: functional, cell-based
PARAMETER: IC50 (µM)
Unit µM implied. Number only.

Worked cases, answers included:
Cc1ccc2nnn3c4ccccc4c(N=O)c3c2c1	9.5
O=Nc1c2ccccc2n2nnc3ccccc3c12	10
COc1ccc2c(c1)c(N=O)c1c3ccccc3nnn21	11

Now look at this one.
In: // query IC50 value for entry O=Nc1c2ccccc2n2nnc3cc(Cl)ccc3c12
Out: 9.2
